# Test system: Z-138 cells
# protocol-details: Z-138 Proliferation Assay (Cell Titer Glo, 5 days)
# Type: cell-based
# test-parameters: Homo sapiens, Table D-2
pEC50: −log10 of the molar value.
observation-type: pEC50

OCc1cccc(-c2cccc(OCC(O)CN3CCc4ccccc4C3)c2)c1 (centres unmarked)	4.40 to 5.00

State, in one line, measured pEC50 of CCC1c2ccccc2CCN1CC(O)COc1cccc(-c2ccc3ncn(C)c3c2)c1 (centres unmarked)
< 4.70

State, in one line, measured pEC50 of Cn1cnc2ccc(-c3ccnc(NCC(O)CN4CCc5ccccc5C4)n3)cc21 (centres unmarked)
5.00 to 6.00

State, in one line, measured pEC50 of OC(COc1ccc(-n2cncn2)cc1)CN1CCc2ccccc2C1 (centres unmarked)
< 4.70

State, in one line, measured pEC50 of COC(=O)c1cccc(-c2cccc(OCC(O)CN3CCc4ccccc4C3)c2)c1 (centres unmarked)
< 4.70

====

Each entry below carries its recorded IC50.
# study-system: PRMT5/MEP50 (Homo sapiens, UniProt O14744)
# Construct: Expressed full-length human Flag-PRMT5/6His-MeP50 protein complex was purified; made in house; host or cells: Spodoptera frugiperda (SF9) insect cells, baculovirus (pDEST8)
# Sequence (O14744 with tags, fused parts or gaps): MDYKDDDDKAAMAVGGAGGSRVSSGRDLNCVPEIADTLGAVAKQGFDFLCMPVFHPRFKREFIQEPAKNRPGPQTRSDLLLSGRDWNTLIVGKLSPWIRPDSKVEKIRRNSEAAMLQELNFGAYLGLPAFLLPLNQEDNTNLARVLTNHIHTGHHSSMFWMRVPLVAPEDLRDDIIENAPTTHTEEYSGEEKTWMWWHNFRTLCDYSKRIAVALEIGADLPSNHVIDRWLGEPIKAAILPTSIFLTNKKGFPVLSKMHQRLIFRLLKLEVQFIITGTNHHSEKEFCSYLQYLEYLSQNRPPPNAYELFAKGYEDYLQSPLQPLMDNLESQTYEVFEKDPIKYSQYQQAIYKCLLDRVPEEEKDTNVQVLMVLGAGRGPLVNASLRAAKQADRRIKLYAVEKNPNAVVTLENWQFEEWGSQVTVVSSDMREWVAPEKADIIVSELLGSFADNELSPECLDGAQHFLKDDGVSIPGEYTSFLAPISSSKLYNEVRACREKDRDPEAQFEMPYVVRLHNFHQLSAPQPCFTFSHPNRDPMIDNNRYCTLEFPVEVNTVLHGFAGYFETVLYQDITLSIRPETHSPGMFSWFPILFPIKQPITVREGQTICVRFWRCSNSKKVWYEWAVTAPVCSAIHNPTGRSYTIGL
# Sequence (Q9BQA1 with tags, fused parts or gaps partner limits assumed): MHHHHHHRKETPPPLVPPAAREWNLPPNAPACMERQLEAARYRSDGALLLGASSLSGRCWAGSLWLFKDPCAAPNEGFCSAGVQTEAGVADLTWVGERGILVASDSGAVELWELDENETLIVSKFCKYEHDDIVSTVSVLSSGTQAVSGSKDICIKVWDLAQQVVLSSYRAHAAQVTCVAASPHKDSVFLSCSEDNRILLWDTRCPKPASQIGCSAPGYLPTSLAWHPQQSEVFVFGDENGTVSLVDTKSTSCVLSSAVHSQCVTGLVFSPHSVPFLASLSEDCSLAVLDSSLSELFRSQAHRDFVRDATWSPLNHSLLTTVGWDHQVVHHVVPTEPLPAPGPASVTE
# protocol-details: PRMT5 Biochemical Assay (PRMT5/MEP50 enzyme assay on peptide substrate, 3H-SAM Flashplate)
# test-parameters: Table A-2; PRMT5/MEP50 4 nM, 3H-SAM 75 nM, peptide 40 nM; read-out: Biochemical IC50

COc1ccc(OCC(=O)NCC(O)CN2CCc3ccccc3C2)cc1 (stereo not shown)	101 to 1000 nM
Cn1ccnc1-c1ccccc1OCC(=O)NCC(O)CN1CCc2ccccc2C1 (stereo not shown)	101 to 1000 nM
O=C(COc1ccccc1S(=O)(=O)N1CCOCC1)NCC(O)CN1CCc2ccccc2C1 (stereo not shown)	< 100 nM
O=C(Cc1ccccc1)NC[C@@H](O)CN1CCc2ccccc2C1	10000 to 50000 nM
Cn1nccc1-c1cccc(CC(=O)NCC(O)CN2CCc3ccccc3C2)c1 (stereo not shown)	101 to 1000 nM

Provide measured IC50 on PRMT5/MEP50 (Homo sapiens, UniProt O14744) for `COc1ccc2cccc(OCC(=O)NC[C@@H](O)CN3CCc4ccccc4C3)c2n1` please.
< 100 nM

Provide measured IC50 on PRMT5/MEP50 (Homo sapiens, UniProt O14744) for O=C(COc1ccccc1-c1cc[nH]n1)NCC(O)CN1CCc2ccccc2C1 (stereo not shown) please.
< 100 nM

Provide measured IC50 on PRMT5/MEP50 (Homo sapiens, UniProt O14744) for CC(Oc1ccccc1S(C)(=O)=O)C(=O)NCC(O)CN1CCc2ccccc2C1 (stereo not shown) please.
101 to 1000 nM

====

Each entry below carries its recorded pEC50.
# Test system: Z-138 cells
# protocol-details: Z-138 Methylation Assay (In Cell Western for symmetric di-methyl arginine and DNA content)
# Assay type: cell-based
# test-parameters: Homo sapiens, Table D-2, read-out: ICW EC50
pEC50: −log10 of the molar value.

Reference set (5 entries):
OC(COc1cccc(-c2ccc3nn[nH]c3c2)c1)CN1CCc2ccccc2C1 (stereo not drawn)	5.00 to 6.00
CN1CCC(n2cnc3ccc(-c4ccnc(NCC(O)CN5CCc6ccccc6C5)c4)cc32)C1 (stereo not drawn)	6.00 to 7.00
O=C(c1cccc(-c2cccc(OCC(O)CN3CCc4ccccc4C3)c2)c1)N1CCOCC1 (stereo not drawn)	5.00 to 6.00
Cn1ncc2cc(-c3cccc(OCC(O)CN4CCc5ccccc5C4)c3)ccc21 (stereo not drawn)	5.00 to 6.00
Cn1cnc2ccc(-c3ccnc(NC[C@H](O)CN4CCc5ccccc5C4)c3)cc21	6.00 to 7.00

State, in one line, measured pEC50 of Cn1ncc2ccc(-c3ccnc(NCC(O)CN4CCc5ccccc5C4)c3)cc21 (stereo not drawn)
6.00 to 7.00

State, in one line, measured pEC50 of OC(COc1cccc(-c2csc3ccccc23)c1)CN1CCc2ccccc2C1 (stereo not drawn)
5.00 to 6.00

State, in one line, measured pEC50 of CS(=O)(=O)Nc1ccc(-c2cccc(OCC(O)CN3CCc4ccccc4C3)c2)cc1 (stereo not drawn)
5.00 to 6.00
